The values you see were collected from the Kinase Knowledgebase extract (Sharma et al. 2016).

- EXPERIMENTAL_SYSTEM: PIK3CG (human) (UniProt P48736)
- Sequence (P48736 whole entry, looked up): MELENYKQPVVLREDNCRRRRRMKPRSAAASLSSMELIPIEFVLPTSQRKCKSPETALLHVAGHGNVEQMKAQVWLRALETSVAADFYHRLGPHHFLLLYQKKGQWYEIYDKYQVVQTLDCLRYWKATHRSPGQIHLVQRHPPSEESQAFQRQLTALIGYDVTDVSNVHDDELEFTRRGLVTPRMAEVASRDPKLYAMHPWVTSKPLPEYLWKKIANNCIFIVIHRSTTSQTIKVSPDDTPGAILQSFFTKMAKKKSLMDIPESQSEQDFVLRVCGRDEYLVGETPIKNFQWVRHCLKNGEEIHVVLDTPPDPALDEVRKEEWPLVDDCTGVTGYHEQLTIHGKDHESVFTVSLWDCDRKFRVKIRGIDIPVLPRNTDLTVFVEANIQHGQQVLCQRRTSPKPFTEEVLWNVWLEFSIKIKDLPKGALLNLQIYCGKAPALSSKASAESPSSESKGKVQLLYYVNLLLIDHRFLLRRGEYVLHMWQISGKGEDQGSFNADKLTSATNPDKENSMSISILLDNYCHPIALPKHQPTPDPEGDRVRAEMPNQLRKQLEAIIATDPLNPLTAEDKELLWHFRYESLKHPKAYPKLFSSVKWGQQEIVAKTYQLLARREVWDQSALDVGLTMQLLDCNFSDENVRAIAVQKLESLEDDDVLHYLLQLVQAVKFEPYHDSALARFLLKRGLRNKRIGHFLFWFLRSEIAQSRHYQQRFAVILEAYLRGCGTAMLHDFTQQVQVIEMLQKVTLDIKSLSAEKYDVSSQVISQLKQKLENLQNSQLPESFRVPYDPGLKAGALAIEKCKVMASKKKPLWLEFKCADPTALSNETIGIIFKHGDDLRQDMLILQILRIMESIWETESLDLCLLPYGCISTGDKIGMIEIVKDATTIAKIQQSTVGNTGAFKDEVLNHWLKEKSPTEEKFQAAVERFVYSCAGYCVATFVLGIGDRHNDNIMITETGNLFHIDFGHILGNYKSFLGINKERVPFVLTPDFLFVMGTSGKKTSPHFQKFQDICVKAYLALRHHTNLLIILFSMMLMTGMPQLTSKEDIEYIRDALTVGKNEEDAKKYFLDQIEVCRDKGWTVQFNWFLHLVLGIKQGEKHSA
- ASSAY_METHOD_TEXT: Enzyme Assay
pIC50: −log10 of the molar value.
ENDPOINT_NAME: pIC50

Observe how each entry below is paired with its result.
N#Cc1c(N)ncnc1N1CCC[C@H]1c1nc2cccc(C(F)(F)F)c2c(=O)n1-c1cccnc1    6.02
N#Cc1c(N)ncnc1N1CCC[C@H]1c1nc2cccc(C(F)(F)F)c2c(=O)n1-c1ccccc1    6.85

[P] O=c1c2c(Cl)cccc2nc([C@@H]2CSCN2c2ncnc3[nH]cnc23)n1-c1ccccc1C1CC1
[Q] Cc1nc(N)nc(N2CCC[C@H]2c2nc3cccc(C(F)(F)F)c3c(=O)n2-c2cccc(F)c2)c1C#N
[R] CS(=O)(=O)N1CC[C@@H](n2c([C@@H]3CCCN3c3ncnc4[nH]cnc34)nc3cccc(Cl)c3c2=O)C1
[S] N#Cc1c(N)ncnc1N1OCC[C@H]1c1nc2cccc(Cl)c2c(=O)n1-c1ccccc1
// smallest pIC50 at index 0, largest at the end Please reply with the labels ordered as requested. Many thanks.
R, P, Q, S

* * *

- EXPERIMENTAL_SYSTEM: PIK3CA (human)
- ASSAY_METHOD_TEXT: Enzyme Assay
ENDPOINT_NAME: IC50 (nM)

CO[C@H]1C[C@@H](c2nc3cccc(Cl)c3c(=O)n2C2CC2)N(c2ncnc(N)c2C#N)C1    2800
O=c1c2c(Cl)cccc2nc([C@@H]2CCCN2c2ncnc3[nH]cnc23)n1C1CCOCC1    4550
CO[C@H]1C[C@@H](c2nc3cccc(C(F)(F)F)c3c(=O)n2-c2ccccc2)N(c2ncnc(N)c2C#N)C1    7600
CC1(n2c([C@@H]3CCCN3c3ncnc(N)c3C#N)nc3cccc(Cl)c3c2=O)CC1    590
N#Cc1c(N)ncnc1N1OCC[C@H]1c1nc2cccc(Cl)c2c(=O)n1-c1ccccc1    2000

[1] O=c1c2c(Cl)cccc2nc([C@@H]2C[C@H](OC(F)F)CN2c2ncnc3[nH]cnc23)n1-c1ccccc1
[2] Nc1nc(N2CCC[C@H]2c2nc3cccc(C(F)(F)F)c3c(=O)n2-c2ccccc2)c2ncsc2n1
Task for the reader: decide whether 1 or 2 has the larger IC50. Answer format: the label of the selected item.
2
(2: 1700 nM, 1: 620 nM)

* * *

- EXPERIMENTAL_SYSTEM: PIK3CA (human)
- ASSAY_METHOD_TEXT: Cell-Based Assay
- CONDITION_LABEL: rat-1
ENDPOINT_NAME: IC50

N#Cc1c(N)ncnc1N1CCC[C@H]1c1nc2cc(F)cc(F)c2c(=O)n1-c1ccccc1    > 10 µM
CS(=O)(=O)N[C@H]1C[C@@H](c2nc3cccc(Cl)c3c(=O)n2-c2ccccc2)N(c2ncnc3[nH]cnc23)C1    > 10 µM
N#Cc1c(N)ncnc1N1CCC[C@H]1c1nc2ccc(F)c(F)c2c(=O)n1-c1ccccc1    > 10 µM
O=c1c2c(Cl)cccc2nc([C@@H]2CCCN2c2ncnc3[nH]cnc23)n1C1CCOCC1    > 10 µM
N#Cc1c(N)ncnc1N1CCC[C@H]1c1nc2cccc(Cl)c2c(=O)n1N1CCOCC1    > 10 µM

Notebook entry, PIK3CA (human) assay: IC50 of `CO[C@H]1C[C@@H](c2nc3cccc(Cl)c3c(=O)n2-c2ccccc2)N(c2nc(N)nn3ccnc23)C1` = ?
> 10 µM

Please give the result for `N#Cc1c(N)ncnc1N1CCC[C@H]1c1nc2cccc(OC(F)F)c2c(=O)n1-c1ccccc1` too.
> 10 µM

Also `Cc1nc(N)nc(N2CCC[C@H]2c2nc3cccc(C(F)(F)F)c3c(=O)n2-c2cncnc2)c1C#N` ?
> 10 µM

Check `O=c1c2c(Cl)cccc2nc([C@@H]2CCON2c2ncnc3[nH]cnc23)n1-c1ccccc1` too.
> 10 µM

Here is the next molecule: `CS(=O)(=O)c1cccc2nc([C@@H]3CCCN3c3ncnc(N)c3C#N)n(-c3ccccc3)c(=O)c12`
4.6 µM

Then this molecule: `N#Cc1c(N)ncnc1N1CCC[C@H]1c1nc2cccc(Cl)c2c(=O)n1-c1ccccc1`
1.75 µM

Now the molecule `Cc1nc(N)nc(N2CCC[C@H]2c2nc3ccc(F)c(C)c3c(=O)n2-c2ccccc2)c1C#N`
2.09 µM
